assay_notes: chemical genetic growth profiling, strain panel (AID 1159580);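 note: tested at 20 µM; growth read once vehicle control cultures reached saturation at 30 °C; 1 = growth at the plate median or of vehicle wells; lower values mean less growth of the strain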
experimental_parameters: S. cerevisiae deletion strains, growth OD, locus YBR229C, strain ROT2, hits give low values
Out of some 5,500 compounds screened, about 2,000 (36%) were called active. About 18% were inconclusive and are not listed. The list shows a part of the results.
reported_endpoint: normalized growth
Output spec: single numeric token, no unit.

molecule | normalized growth
CCCOc1ccc2nc(NC(=O)OC)[nH]c2c1 | 0.992
CC(=O)Oc1ccc(C(c2ccc(OC(C)=O)cc2)c2ccccn2)cc1 | 0.969
CC(=O)Nc1ccc(S(=O)(=O)Nc2c(C)n(C)n(-c3ccccc3)c2=O)cc1 | 0.947

Ask: Param item = CC1(C)CC2C1CC[C@]1(CBr)CCC3C(CC(=O)O)C(=O)O[C@@]32C1 (stereo partly specified) ; retrieve measured normalized growth.
Reply: 0.958

Ask: What value of measured normalized growth is listed for CC12CCC(O)CC1CCC1C2[C@H](O)CC2(C)C(C3=CC(=O)OC3)CCC12O (stereo partly specified) ?
Reply: 1.03

Ask: What does the record list as normalized growth for Nc1ccc(C(=O)O)cc1 ?
Reply: 0.996

---

We begin with a simple list: items and their reported normalized growth.
assay_notes: chemical genetic growth profiling, strain panel (AID 1159580);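 note: tested at 20 µM; growth read once vehicle control cultures reached saturation at 30 °C; 1 = growth at the plate median or of vehicle wells; lower values mean less growth of the strain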
experimental_parameters: S. cerevisiae deletion strains, growth OD, locus YPR163C, strain tif3, hits give low values
The whole screen tested about 5,500 compounds, of which about 2,000 (36%) were called active. Another 18% or so got no clear call; they are omitted. Some of the results follow.
Give only the figure.

// below: answered compounds
compound | normalized growth
COc1c(C)c2c(c(C)c1Cl)Oc1c(Cl)c(OC)c(Cl)c(C)c1C(=O)O2 | 1.03
CC(C)CCCC(C)[C@H]1CCC2C3CC=C4CC(=O)CC[C@]4(C)C3CC[C@@]21C (some centres undefined) | 0.977
CC(C)=CC1C(C(=O)O)C1(C)C (centres undefined) | 0.992
CC(C)CCCC(C)[C@H]1CCC2C3CC[C@@H]4C[C@H](O)CC[C@]4(C)C3CC[C@@]21C (some centres undefined) | 1.01
CC(C)CCCC(C)C1CCC2C3CC[C@H]4C[C@@H](O)CC[C@]4(C)C3CC[C@]12C (some centres undefined) | 1

Ask: So what does the record say about normalized growth for CC(C)CCCC(C)C1CCC2C3CC(=O)[C@H]4C[C@@H](O)CC[C@]4(C)C3CC[C@]12C (some centres undefined) ?
Reply: 1.01

Ask: # get_value(readout='normalized growth', item= COC(=O)c1c(C)c2c(c(C)c1OC)OC(=O)c1c(C)c(Cl)c(OC)c(Cl)c1O2 )
Reply: 1.01

Ask: Which normalized growth reading was recorded for the compound CC(C)CCCC(C)C1CCC2C3=CC[C@H]4C[C@@H](O)CC[C@]4(C)C3CC[C@@]21C (some centres undefined) ?
Reply: 0.994

Ask: # input compound: COC(=O)c1c(OC)cc2c(c1C)Oc1c(Cl)c(OC(C)=O)c(Cl)c(C)c1C(=O)O2 ; wanted: its normalized growth
Reply: 1.02

---

# normalized growth values compiled below
assay_notes: chemical genetic growth profiling, strain panel (AID 1159580);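 note: tested at 20 µM; growth read once vehicle control cultures reached saturation at 30 °C; 1 = growth at the plate median or of vehicle wells; lower values mean less growth of the strain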
experimental_parameters: S. cerevisiae deletion strains, growth OD, locus YER016W, strain bim1, hits give low values
Among all 5,500 compounds or so, about 2,000 (36%) were called active. About 18% were inconclusive and are not listed. This is one part of the list.
Hey, just send me the number, nothing else.

Ask: Would you mind telling me what normalized growth value was observed for CN(C)CCCN1c2ccccc2Sc2ccc(C(F)(F)F)cc21 ?
Reply: 1.02

Ask: Using the record for O=C(OCc1ccccc1)c1ccccc1 , report its normalized growth.
Reply: 0.973

Ask: Value lookup for normalized growth; key = Cc1nc(N)cc(C[n+]2csc(CCO)c2C)n1
Reply: 0.979

Every entry's value here was drawn from PubChem BioAssay AID1159580.
